Attribution: patent US20240391954A1

- test.target: human MC4R (Homo sapiens, UniProt P32245)
- Construct: host or cells: HEK-293 cells stably expressing the GScAMP22F split-luciferase cAMP sensor and hMC4R, G418 selection
- Sequence (P32245 whole entry): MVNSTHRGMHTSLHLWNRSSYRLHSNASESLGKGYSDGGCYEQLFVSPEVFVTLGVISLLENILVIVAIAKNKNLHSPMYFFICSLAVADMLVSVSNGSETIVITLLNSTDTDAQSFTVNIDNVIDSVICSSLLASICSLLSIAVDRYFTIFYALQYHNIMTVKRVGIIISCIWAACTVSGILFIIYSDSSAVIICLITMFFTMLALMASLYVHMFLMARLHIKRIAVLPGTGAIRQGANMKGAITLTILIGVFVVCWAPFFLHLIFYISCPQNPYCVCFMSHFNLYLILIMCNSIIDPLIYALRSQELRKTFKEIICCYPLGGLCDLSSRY
- assay.remarks: split-luciferase cAMP sensor assay, agonist mode (measurement window 1), hMC4R
- Assay type: cell-based
- run.conditions: agonist mode, hMC4R stable cell line; read-out: MC4R cAMP EC50
- Protocol: The stable cell lines were grown and maintained in selection media consisting of Dulbecco's modified Eagle media (DMEM) with 4.5 g/l D-glucose, and 4 mM L-glutamine (Thermo Fisher Scientific, Waltham, MA), supplemented with 10% fetal bovine serum, 100 units/ml penicillin, 100 μg/ml streptomycin, 2.5 μg/ml amphotericin B, 200 μg/ml hygromycin B (for positive selection of the GScAMP22f luciferase reporter), and Geneticin™ (G418) 700 μg/ml (for MC3R or MC4R selection). […]
Positions of bridges follow the written chain, without caps; N, C: chain ends. Non-standard residues stand in square brackets, D forms with d. Residues, ends and D or L forms follow the SMILES beside them. dPhe(4-Br) = N[C@H](Cc1ccc(Br)cc1)C(=O)O; Nle = CCCC[C@H](N)C(=O)O
Task for the reader: assign each of the following compounds its reported pEC50.
pEC50 (log units): -log10 of the concentration in mol/L.

Request: Notebook: pull reported pEC50 for human MC4R (Homo sapiens, UniProt P32245), entry CC(=O)N[C@@H](CCCNC(=N)N)C(=O)N[C@H]1CSSC[C@@H](C(=O)N[C@@H](CCCNC(=N)N)C(=O)N[C@@H](Cc2ccccc2)C(=O)NCC(=O)O)NC(=O)[C@@H](Cc2c[nH]c3ccccc23)NC(=O)[C@H](CCCNC(=N)N)NC(=O)[C@@H](Cc2ccc(Br)cc2)NC(=O)[C@H](CCCNC(=N)N)NC(=O)[C@@H](C)NC1=O [CTX-1219] (Ac-RC[dA]R[dPhe(4-Br)]R[dW]CRFG-OH; disulfide 2-8 (inferred))
Result: 8.64

Request: Also CCCC[C@H](NC(=O)[C@H](CCCNC(=N)N)NC(C)=O)C(=O)N[C@H]1CSSC[C@@H](C(N)=O)NC(=O)[C@H](Cc2c[nH]c3ccccc23)NC(=O)[C@H](CCCNC(=N)N)NC(=O)[C@@H](Cc2ccc(Br)cc2)NC(=O)[C@H](CCCNC(=N)N)NC1=O [CTX-1612] (Ac-R[Nle]CR[dPhe(4-Br)]RWC-NH2; disulfide 3-8 (inferred)) , if possible.
Result: 8.70

Request: Also CC(=O)N[C@@H](CCCNC(=N)N)C(=O)N[C@H]1CSSC[C@@H](C(N)=O)NC(=O)[C@@H](Cc2c[nH]c3ccccc23)NC(=O)[C@H](CCCNC(=N)N)NC(=O)[C@@H](Cc2ccc(Br)cc2)NC(=O)[C@@H]2CCCN2C(=O)[C@@H](C)NC1=O [CTX-1249] (Ac-RC[dA]P[dPhe(4-Br)]R[dW]C-NH2; disulfide 2-8) , if possible.
Result: 7.85

Request: Also CCCC[C@H](NC(=O)[C@H](CCCNC(=N)N)NC(C)=O)C(=O)N[C@H]1CSSC[C@@H](C(N)=O)NC(=O)[C@H](Cc2c[nH]c3ccccc23)NC(=O)[C@H](CCCNC(=N)N)NC(=O)[C@@H](Cc2ccc(Br)cc2)NC(=O)[C@H](CCCNC(=N)N)NC1=O [CTX-1230] (Ac-R[Nle]CR[dPhe(4-Br)]RWC-NH2; disulfide 3-8) , if possible.
Result: 8.85
